Examples of molecules with documented GI50 follow.
Test system: MDA-MB-231
TEST: NCI tumour cell line growth inhibition, 48 h
Active and inactive are the calls of the source. Cut-off read from the data, not from the text of the source: active = GI50 up to about 1.1 µM and inactive = higher.

MOLECULE: Nc1nc(O)nc2c1ncn2C1OC(CO)C(O)C1O (centres undefined)
GI50: 38 µM (inactive)

MOLECULE: Cc1ccc(S(=O)(=O)NC2=NS(=O)(=O)c3cc(C)c(Cl)cc3S2)cc1
GI50: > 100 µM (inactive)

MOLECULE: Cn1nc2c(c1N)Cc1c(nn(C)c1N)-c1ccccc1-2
GI50: > 100 µM (inactive)

MOLECULE: NCCNc1ncnc2ccc(Cl)cc12
GI50: 93.1 µM (inactive)
